tested on: ddY-strain male mice; experiment: Acute Toxicity Test (minimum lethal dose, oral); format: in vivo; conditions: seven days after administration

COMPOUND	MLD (minimum lethal dose)
CCn1c(=O)c2[nH]c(/C=C/c3ccc(C)cc3)nc2n(CC)c1=O [Compound 151]	> 100 mg/kg
COc1cccc(/C=C/c2nc3c(c(=O)n(C)c(=O)n3C)n2C)c1OC [Compound 98, (E)-8-(2,3-Dimethoxystyryl)caffeine]	> 300 mg/kg
CCn1c(=O)c2c(nc(/C=C/c3ccc(Br)cc3)n2C)n(CC)c1=O [Compound 142]	> 100 mg/kg
CCn1c(=O)c2c(nc(/C=C/c3ccc(OC)c(C)c3)n2C)n(CC)c1=O [Compound 175]	> 100 mg/kg
CCn1c(=O)c2c(nc(/C=C/c3ccccc3F)n2C)n(CC)c1=O [Compound 168]	> 100 mg/kg
COc1cc(/C=C/c2nc3c(c(=O)n(C)c(=O)n3C)n2C)cc(OC)c1OC [Compound 2, (E)-8-(3,4,5-trimethoxystyryl)caffeine]	> 300 mg/kg
COc1ccc(/C=C/c2nc3c(c(=O)n(C)c(=O)n3C)n2C)c(OC)c1C [Compound 104]	> 100 mg/kg
CCn1c(=O)c2c(nc(/C=C/c3cc(OC)c(OC)c(OC)c3)n2C)n(CC)c1=O [Compound 4]	> 300 mg/kg
CCn1c(=O)c2c(nc(/C=C/c3cc4c(cc3Br)OCO4)n2C)n(CC)c1=O [Compound 166]	> 100 mg/kg
CCCn1c(=O)c2[nH]c(/C=C/c3ccccc3F)nc2n(CCC)c1=O [Compound 43]	> 100 mg/kg
CCn1c(=O)c2c(nc(/C=C/c3ccc(O)cc3)n2C)n(CC)c1=O [Compound 184]	> 100 mg/kg
CCn1c(=O)c2c(nc(/C=C/c3ccc(OC)c(O)c3)n2C)n(CC)c1=O [Compound 183]	> 100 mg/kg
CCn1c(=O)c2[nH]c(/C=C/c3ccc(OC)c(OC)c3Cl)nc2n(CC)c1=O [Compound 105]	> 100 mg/kg
CCn1c(=O)c2c(nc(/C=C/c3ccc4c(c3)OCO4)n2C)n(CC)c1=O [Compound 88]	> 300 mg/kg
CCn1c(=O)c2c(nc(/C=C/c3ccc(OC)c(OC)c3)n2C)n(CC)c1=O [Compound 74]	> 300 mg/kg
CCCn1c(=O)c2c(nc(/C=C/c3ccccc3)n2C)n(CCC)c1=O [Compound 3]	> 300 mg/kg
CCn1c(=O)c2c(nc(/C=C/c3ccc(OC)c(F)c3)n2C)n(CC)c1=O [Compound 173]	> 100 mg/kg

Origin of values: patent US5543415A
